Target: Lck (Homo sapiens)
Construct: Kinases are expressed as either kinase domains or full length constructs; made in house
Sequence (P06239 whole entry, species assumed, the tested form may be a part): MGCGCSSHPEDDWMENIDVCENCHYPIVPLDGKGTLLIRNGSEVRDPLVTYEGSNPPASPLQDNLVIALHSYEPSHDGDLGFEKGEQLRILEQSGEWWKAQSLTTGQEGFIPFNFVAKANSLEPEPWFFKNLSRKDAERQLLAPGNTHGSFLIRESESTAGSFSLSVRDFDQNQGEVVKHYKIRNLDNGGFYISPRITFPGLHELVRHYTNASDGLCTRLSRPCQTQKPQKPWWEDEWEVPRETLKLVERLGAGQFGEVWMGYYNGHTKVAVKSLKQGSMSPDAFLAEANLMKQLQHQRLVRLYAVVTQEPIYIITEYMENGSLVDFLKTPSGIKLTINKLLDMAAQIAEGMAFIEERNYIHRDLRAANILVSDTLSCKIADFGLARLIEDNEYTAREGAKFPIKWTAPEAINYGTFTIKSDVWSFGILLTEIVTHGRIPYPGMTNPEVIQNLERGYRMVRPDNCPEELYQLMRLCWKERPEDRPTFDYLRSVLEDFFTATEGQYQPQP
Assay: Kinase inhibition assay (33P transfer), Lck
Assay type: biochemical
Details: Table 3; read-out: Lck-1
pIC50: −log10 of the molar value.
METRIC: pIC50

COMPOUND: COCCOc1ccc(Nc2ncnc(Nc3ccc(C)c(O)c3)n2)cc1OCCOC [Compound 125]
METRIC: pIC50
TEST_RESULT: 5.26 to 6.04
--
COMPOUND: NC(=O)c1ccc(Nc2ncnc(Nc3cc(-c4ccco4)n[nH]3)n2)cc1 [Compound 341]
METRIC: pIC50
TEST_RESULT: 5.02 to 5.18
--
COMPOUND: O=C1OCc2ccc(Nc3ncnc(Nc4cc(-c5ccco5)n[nH]4)n3)cc21 [Compound 364]
METRIC: pIC50
TEST_RESULT: 5.03 to 5.19
--
COMPOUND: CC(C)(C)OC(=O)NCc1ccc(Nc2ncnc(Nc3cc(-c4ccco4)n[nH]3)n2)cc1 [Compound 431]
METRIC: pIC50
TEST_RESULT: 5.00 to 5.11
--
COMPOUND: Fc1cccc(Nc2ncnc(-c3cccs3)n2)c1 [Compound 1073]
METRIC: pIC50
TEST_RESULT: < 4.78
--
COMPOUND: COc1cc(Nc2ncnc(N3CCCCC3)n2)cc(OC)c1OC [Compound 207]
METRIC: pIC50
TEST_RESULT: 4.89 to 4.99
--
COMPOUND: COc1cc(Nc2ncnc(-n3c(Nc4ccc5[nH]ncc5c4)nc4ccccc43)n2)cc(OC)c1OC [Compound 404]
METRIC: pIC50
TEST_RESULT: 5.33 to 6.11
--
COMPOUND: COc1cc(Nc2ncnc(-n3cc(CC(N)=O)c4ccccc43)n2)cc(OC)c1OC [Compound 353]
METRIC: pIC50
TEST_RESULT: 4.98 to 5.09

---

Biological target: Lck (Homo sapiens)
Construct: Kinases are expressed as either kinase domains or full length constructs; made in house
Assay: Kinase inhibition assay (33P transfer), Lck
Assay type: biochemical
Conditions: Table 3; read-out: Lck-1
pIC50: −log10 of the molar value.
METRIC: pIC50

SMILES_REPRESENTATION: COc1cc(Nc2ncnc(-c3ccnc(NCCCO)c3)n2)cc(OC)c1OC
SYSTEM_NAME: Lck (Homo sapiens)
TEST_RESULT: 5.24 to 6.01
--
SMILES_REPRESENTATION: COc1cc(Nc2ncnc(Nc3ccc(Oc4ccccc4)cc3)n2)cc(OC)c1OC
SYSTEM_NAME: Lck (Homo sapiens)
TEST_RESULT: > 6.05
--
SMILES_REPRESENTATION: COc1ccc(Nc2ncnc(Nc3cccc(C)c3)n2)cc1OC
SYSTEM_NAME: Lck (Homo sapiens)
TEST_RESULT: 4.87 to 4.98
--
SMILES_REPRESENTATION: COc1ccc(CNc2ncnc(Nc3cc(OC)c(OC)c(OC)c3)n2)cc1
SYSTEM_NAME: Lck (Homo sapiens)
TEST_RESULT: < 4.95
--
SMILES_REPRESENTATION: Cc1cccc(Nc2ncnc(Nc3cccc(Br)c3)n2)c1
SYSTEM_NAME: Lck (Homo sapiens)
TEST_RESULT: < 4.90
--
SMILES_REPRESENTATION: COc1cc(Nc2ncnc(Nc3cc(F)ccc3F)n2)cc(OC)c1OC
SYSTEM_NAME: Lck (Homo sapiens)
TEST_RESULT: < 4.94
--
SMILES_REPRESENTATION: COc1cc(Nc2ncnc(Nc3ccc(C)c(NS(C)(=O)=O)c3)n2)cc(OC)c1OC
SYSTEM_NAME: Lck (Homo sapiens)
TEST_RESULT: 5.28 to 6.06
--
SMILES_REPRESENTATION: COc1cc(Nc2ncnc(-n3ccnc3)n2)cc(OC)c1OC
SYSTEM_NAME: Lck (Homo sapiens)
TEST_RESULT: < 4.86
--
SMILES_REPRESENTATION: COc1cc(Nc2ncnc(Nc3cccc(C)c3)n2)cc(OC)c1OC
SYSTEM_NAME: Lck (Homo sapiens)
TEST_RESULT: 5.18 to 5.96

Values from patent US7074789B2
